assay: Biodistribution of Tc-99m complexes in guinea pigs (heart uptake, heart/blood); conditions: jugular vein injection, 5 minutes, Tc-99m complex
This listing pairs compounds with measured 5 Minute Guinea Pig % HT Uptake.
Measurement type: 5 Minute Guinea Pig % HT Uptake

> print(dat)
                                    compound                 measurement.type  observed.value
 1  COc1ccc(COCC(CN=Cc2c(O)cc(OC)c(OC)c2OC)(CN=Cc2c(O)cc(OC)c(OC)c2OC)CN=Cc2c(O)cc(OC)c(OC)c2OC)cc1 (stereo not drawn)  5 Minute Guinea Pig % HT Uptake           1.04%
 2  CCOc1ccc(C=NCC(C)(CN=Cc2ccc(OCC)cc2O)CN=Cc2ccc(OCC)cc2O)c(O)c1 (stereo not drawn)  5 Minute Guinea Pig % HT Uptake           0.98%
 3  CCC(C)OCC(CN=Cc1ccccc1O)(CN=Cc1ccccc1O)CN=Cc1ccccc1O (stereo not drawn)  5 Minute Guinea Pig % HT Uptake           1.55%
 4  CCCCCCCC(=O)OCC(CN=Cc1ccccc1O)(CN=Cc1ccccc1O)CN=Cc1ccccc1O (stereo not drawn)  5 Minute Guinea Pig % HT Uptake           0.88%
 5  COC(=O)c1ccc(O)c(C=NCC(C)(CN=Cc2cc(C(=O)OC)ccc2O)CN=Cc2cc(C(=O)OC)ccc2O)c1 (stereo not drawn)  5 Minute Guinea Pig % HT Uptake           1.23%
 6  COCC(CN=Cc1c(O)cc(OC)c(OC)c1OC)(CN=Cc1c(O)cc(OC)c(OC)c1OC)CN=Cc1c(O)cc(OC)c(OC)c1OC (stereo not drawn)  5 Minute Guinea Pig % HT Uptake           0.86%
 7  Oc1ccccc1C=NCC(CN=Cc1ccccc1O)(CN=Cc1ccccc1O)COCc1ccccc1 (stereo not drawn)  5 Minute Guinea Pig % HT Uptake           1.60%
 8  COCC(CN=Cc1ccccc1O)(CN=Cc1ccccc1O)CN=Cc1ccccc1O (stereo not drawn)  5 Minute Guinea Pig % HT Uptake           1.44%
 9  COc1cc(O)c(C=NCC(CN=Cc2c(O)cc(OC)c(OC)c2OC)(CN=Cc2c(O)cc(OC)c(OC)c2OC)COCc2ccccc2)c(OC)c1OC (stereo not drawn)  5 Minute Guinea Pig % HT Uptake           0.60%
10  CCC(=NCC(C)(CN=C(CC)c1ccccc1O)CN=C(CC)c1ccccc1O)c1ccccc1O (stereo not drawn)  5 Minute Guinea Pig % HT Uptake           0.76%
11  COc1cc(O)c(C=NCC(C)(CN=Cc2c(O)cc(OC)c(C)c2OC)CN=Cc2c(O)cc(OC)c(C)c2OC)c(OC)c1C (stereo not drawn)  5 Minute Guinea Pig % HT Uptake           0.84%
12  CCCOCC(CN=Cc1ccccc1O)(CN=Cc1ccccc1O)CN=Cc1ccccc1O (stereo not drawn)  5 Minute Guinea Pig % HT Uptake           1.48%
